protocol_details: Half-life in vivo
condition_info: read-out: t1/2 (in vivo) (converted)
readout_label: half-life (h)
Answers are plain numbers, in h.

[in] Suppose we examine the compound "COc1ccc(-c2cccc(C(=O)N(C)Cc3ccncc3)c2)cc1S(=O)(=O)Nc1cncc(NCCNC(=O)c2cccc(C)c2)c1" ; what half-life value has been reported?
[out] 5.3

---

subject_of_test: human OX2 receptor (Homo sapiens, UniProt O43614)
Construct: host or cells: CHO RD-HGA16 cells
Sequence (O43614 1-444): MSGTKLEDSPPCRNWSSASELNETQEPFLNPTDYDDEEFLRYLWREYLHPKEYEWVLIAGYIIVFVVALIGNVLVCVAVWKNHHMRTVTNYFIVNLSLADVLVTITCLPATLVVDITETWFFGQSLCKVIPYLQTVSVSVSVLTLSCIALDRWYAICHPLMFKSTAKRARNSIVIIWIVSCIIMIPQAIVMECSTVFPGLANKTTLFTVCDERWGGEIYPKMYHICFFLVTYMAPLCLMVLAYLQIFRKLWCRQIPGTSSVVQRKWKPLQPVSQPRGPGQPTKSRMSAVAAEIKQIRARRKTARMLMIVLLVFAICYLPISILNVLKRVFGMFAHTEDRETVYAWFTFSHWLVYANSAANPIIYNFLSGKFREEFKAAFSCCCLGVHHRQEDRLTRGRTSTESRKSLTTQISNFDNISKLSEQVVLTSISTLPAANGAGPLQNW
protocol_details: OX2R calcium mobilization assay
Type: cell-based
condition_info: calcium mobilization
readout_label: agonist potency at OX2R, in words

[in] Return reported agonist potency at OX2R, in words; argument: "COc1ccc(-c2cccc(C(=O)N(C)Cc3ccncc3)c2)cc1-c1nnc(Nc2cccc(NCCNC(=O)c3cccc(C)c3)c2)s1"
[out] inactive

[in] Given "COc1ccc(-c2cccc(C(=O)N(C)Cc3ccncc3)c2)cc1-c1nnc(Nc2cccc(OCCNC(=O)c3cccc(C)c3)c2)s1" , state its recorded agonist potency at OX2R, in words.
[out] inactive

---

subject_of_test: UniProt:O43613
Sequence (O43613 1-425): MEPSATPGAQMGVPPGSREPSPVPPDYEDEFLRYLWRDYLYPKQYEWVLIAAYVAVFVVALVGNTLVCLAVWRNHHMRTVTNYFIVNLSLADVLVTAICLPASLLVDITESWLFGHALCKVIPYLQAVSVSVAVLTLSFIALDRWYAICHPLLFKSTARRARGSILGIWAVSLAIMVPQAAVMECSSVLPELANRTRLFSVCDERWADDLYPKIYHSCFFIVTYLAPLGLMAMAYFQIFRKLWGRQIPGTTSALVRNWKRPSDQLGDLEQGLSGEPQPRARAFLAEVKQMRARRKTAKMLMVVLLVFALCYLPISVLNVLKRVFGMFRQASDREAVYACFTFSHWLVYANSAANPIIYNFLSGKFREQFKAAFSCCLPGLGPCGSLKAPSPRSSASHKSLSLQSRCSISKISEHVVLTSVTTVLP
protocol_details: OX1R calcium mobilization assay
Format: cell-based
Design: host or cells: CHO RD-HGA16 cells
condition_info: calcium mobilization
readout_label: agonist potency at OX1R, in words

[in] For COc1ccc(-c2cccc(C(=O)N(C)Cc3ccncc3)c2)cc1-c1nnc(Nc2cccc(NCCNC(=O)c3cccc(C)c3)c2)s1 [Compound 43] , what is its reported agonist potency at OX1R, in words?
[out] inactive

[in] What measured agonist potency at OX1R, in words goes with COc1ccc(-c2cccc(C(=O)N(C)Cc3ccncc3)c2)cc1-c1nnc(Nc2cccc(OCCNC(=O)c3cccc(C)c3)c2)s1 [Compound 44] ?
[out] inactive

[in] Given COc1ccc(-c2cccc(C(=O)N(C)C)c2)cc1C(=O)Nc1cccc(NCCNC(=O)c2cccc(C)c2)c1 [Compound 41] , state its recorded agonist potency at OX1R, in words.
[out] inactive

Data provenance is patent US20240174605A1.
